Value source: PubChem BioAssay AID1159580

# PROCEDURE_DETAILS: chemical genetic growth profiling, strain panel (AID 1159580);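 also: tested at 20 µM; growth read once vehicle control cultures reached saturation at 30 °C; 1 = growth at the plate median or of vehicle wells; lower values mean less growth of the strain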
# ASSAY_CONTEXT: S. cerevisiae deletion strains, growth OD, locus YOL147C, strain pex11, hits give low values
Hit rate of the full screen: of about 5,500 compounds, about 2,000 (36%) were called active. Not shown: some 18% with an inconclusive outcome. The list shows a part of the results.
REPORTED_ENDPOINT: normalized growth
No unit in the answer, only the number.

Ask: Fill in the blank: the reported normalized growth of Cc1cc(-c2ccccc2)nnc1NCCN1CCOCC1 is ____.
Result: 0.977

Ask: Also CCCC(=O)O[C@]1(C(=O)CO)CCC2[C@@H]3CCC4=CC(=O)CC[C@]4(C)C3[C@@H](O)C[C@@]21C (some centres undefined) ?
Result: 0.982

Ask: Also C=C1C(C)C2C(Cc3ccccc3)NC(=O)C23OC(=O)/C=C/C(=O)CCCC(C)C/C=C/C3C1O (centres undefined) ?
Result: 1

Ask: Also CC(=O)N[C@@H](CS)C(=O)O ?
Result: 1.02

----------
# PROCEDURE_DETAILS: chemical genetic growth profiling, strain panel (AID 1159580);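 also: tested at 20 µM; growth read once vehicle control cultures reached saturation at 30 °C; 1 = growth at the plate median or of vehicle wells; lower values mean less growth of the strain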
# ASSAY_CONTEXT: S. cerevisiae deletion strains, growth OD, locus YLL041C, strain sdh2
About 2,000 (36%) of roughly 5,500 compounds were called active. About 18% were inconclusive and are not listed. Cut-off read from the data, not from the text of the source: active = normalized growth mostly below about 0.91 (no sharp cut-off); inconclusive = no clear call, values can overlap the other calls; inactive = mostly above about 0.92. The list shows a part of the results.
The categories you may choose from are active, inactive

Ask: What outcome does the record of this test show for COc1ccc([C@H]2Oc3cc(OC)cc(OC)c3C[C@H]2O)cc1 ?
Result: inactive

Ask: Also CCCCN(CCCC)CCCOC(=O)c1ccc(N)cc1 ?
Result: inactive

Ask: Also CC(C)C(C)/C=C/C(C)[C@H]1CCC2C3=CCC4CC(=O)CC[C@]4(C)C3CC[C@@]21C (stereo partly drawn) ?
Result: inactive

Ask: Also CCCCCCOc1ccccc1C(N)=O ?
Result: inactive

Ask: Also CC(C)(Oc1ccc(C2CC2(Cl)Cl)cc1)C(=O)O (stereo not drawn) ?
Result: inactive

Ask: Also C#CCCCCCCCCCCCC(=O)CC(O)COC(C)=O (stereo not drawn) ?
Result: inactive

Ask: Also C=CCCCCCCCCCCCC(O)CC(O)COC(C)=O (stereo not drawn) (tested in a mixture with another compound) ?
Result: inactive

Ask: Also Cc1cc(NC(=O)C2=C(O)c3ccccc3S(=O)(=O)N2C)no1 ?
Result: inactive

Ask: Also CC(C)C(C)/C=C/C(C)C1CCC2C3=CC=C4CC(O)CCC4(C)C3CCC21C (stereo not drawn) ?
Result: inactive

Ask: Also CO/N=C(\C(=O)NC1C(=O)N2C(C(=O)OC(C)OC(C)=O)=C(COC(N)=O)CSC12)c1ccco1 (stereo not drawn) ?
Result: inactive

Ask: Also N[C@@H](CC(=O)N1CCn2c(nnc2C(F)(F)F)C1)Cc1cc(F)c(F)cc1F ?
Result: inactive

Ask: Also Nc1nc2ncc(=O)[nH]c2c(=O)[nH]1 ?
Result: inactive

Ask: Also C#CCCCCCCCCCCCC(O)CC(O)COC(C)=O (stereo not drawn) ?
Result: active

----------
# PROCEDURE_DETAILS: chemical genetic growth profiling, strain panel (AID 1159580);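 also: tested at 20 µM; growth read once vehicle control cultures reached saturation at 30 °C; 1 = growth at the plate median or of vehicle wells; lower values mean less growth of the strain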
# ASSAY_CONTEXT: S. cerevisiae deletion strains, growth OD, locus YDL035C, strain GPR1, hits give low values
Screen size: about 5,500 compounds; about 2,000 (36%) were called active. Another 18% or so got no clear call; they are omitted. The list shows a part of the results.
Exercise: for every item that follows, state its recorded normalized growth.
No unit in the answer, only the number.

Ask: Fill in the blank: the reported normalized growth of COc1cc(-c2coc3cc(OCc4ccccc4)c(OC)c(O)c3c2=O)cc(O)c1OC is ____.
Result: 0.757

Ask: Also CC(C)NNC(=O)c1ccncc1 ?
Result: 1.01

Ask: Also CC1OC1P(=O)(O)O (stereo not drawn) ?
Result: 0.991

Ask: Also CC(=O)OCC(OC(C)=O)C(OC(C)=O)C(OC(C)=O)C(OC(C)=O)C(COC(C)=O)OC(C)=O (stereo not drawn) ?
Result: 1.07

Ask: Also O=c1cc[nH]c(=S)[nH]1 ?
Result: 1.02

Ask: Also O=C1NC(=O)C(=O)C(=O)N1 ?
Result: 1.03

Ask: Also C#CCCCCCCCCCCCC(O)CC(O)CO (stereo not drawn) ?
Result: 0.984

Ask: Also C=C1C(=O)O[C@@H]2C3O[C@]3(C)CC/C=C(\C)CC[C@@H]12 (stereo partly drawn) ?
Result: 0.838

Ask: Also C#CCCCCCCCCCCCC(=O)CC(O)COC(C)=O (stereo not drawn) ?
Result: 0.8

Ask: Also Oc1ccc(Cl)cc1Cc1cc(Cl)ccc1O ?
Result: 0.0712

Ask: Also CC(C)(C)CC(C)(C)c1ccc(O)c(Cc2ccc(Cl)cc2Cl)c1 ?
Result: 1.01

Ask: Also Nc1nc2ncc(=O)[nH]c2c(=O)[nH]1 ?
Result: 1.01

Ask: Also CO/N=C(\C(=O)N[C@@H]1C(=O)N2C(C(=O)O)=C(COC(C)=O)CS[C@H]12)c1csc(N)n1 ?
Result: 0.959

Ask: Also CC(C)NC[C@H](O)COc1cccc2ccccc12 ?
Result: 0.993

Ask: Also CO[C@@]1(NC(=O)CSCC#N)C(=O)N2C(C(=O)O)=C(CSc3nnnn3C)CSC21 (stereo partly drawn) ?
Result: 1.02

Ask: Also O=S1OCC2C(CO1)C1(Cl)C(Cl)=C(Cl)C2(Cl)C1(Cl)Cl (stereo not drawn) ?
Result: 0.983

Ask: Also Oc1ccc(Cl)cc1 ?
Result: 0.987

Ask: Also C#CCCCCCCCCCCCC(O)CC(O)COC(C)=O (stereo not drawn) ?
Result: 0.908
